- testedOn: Cystic fibrosis transmembrane conductance regulator (Homo sapiens) (UniProt P13569)
- Sequence (P13569 whole entry, looked up, stated change not applied): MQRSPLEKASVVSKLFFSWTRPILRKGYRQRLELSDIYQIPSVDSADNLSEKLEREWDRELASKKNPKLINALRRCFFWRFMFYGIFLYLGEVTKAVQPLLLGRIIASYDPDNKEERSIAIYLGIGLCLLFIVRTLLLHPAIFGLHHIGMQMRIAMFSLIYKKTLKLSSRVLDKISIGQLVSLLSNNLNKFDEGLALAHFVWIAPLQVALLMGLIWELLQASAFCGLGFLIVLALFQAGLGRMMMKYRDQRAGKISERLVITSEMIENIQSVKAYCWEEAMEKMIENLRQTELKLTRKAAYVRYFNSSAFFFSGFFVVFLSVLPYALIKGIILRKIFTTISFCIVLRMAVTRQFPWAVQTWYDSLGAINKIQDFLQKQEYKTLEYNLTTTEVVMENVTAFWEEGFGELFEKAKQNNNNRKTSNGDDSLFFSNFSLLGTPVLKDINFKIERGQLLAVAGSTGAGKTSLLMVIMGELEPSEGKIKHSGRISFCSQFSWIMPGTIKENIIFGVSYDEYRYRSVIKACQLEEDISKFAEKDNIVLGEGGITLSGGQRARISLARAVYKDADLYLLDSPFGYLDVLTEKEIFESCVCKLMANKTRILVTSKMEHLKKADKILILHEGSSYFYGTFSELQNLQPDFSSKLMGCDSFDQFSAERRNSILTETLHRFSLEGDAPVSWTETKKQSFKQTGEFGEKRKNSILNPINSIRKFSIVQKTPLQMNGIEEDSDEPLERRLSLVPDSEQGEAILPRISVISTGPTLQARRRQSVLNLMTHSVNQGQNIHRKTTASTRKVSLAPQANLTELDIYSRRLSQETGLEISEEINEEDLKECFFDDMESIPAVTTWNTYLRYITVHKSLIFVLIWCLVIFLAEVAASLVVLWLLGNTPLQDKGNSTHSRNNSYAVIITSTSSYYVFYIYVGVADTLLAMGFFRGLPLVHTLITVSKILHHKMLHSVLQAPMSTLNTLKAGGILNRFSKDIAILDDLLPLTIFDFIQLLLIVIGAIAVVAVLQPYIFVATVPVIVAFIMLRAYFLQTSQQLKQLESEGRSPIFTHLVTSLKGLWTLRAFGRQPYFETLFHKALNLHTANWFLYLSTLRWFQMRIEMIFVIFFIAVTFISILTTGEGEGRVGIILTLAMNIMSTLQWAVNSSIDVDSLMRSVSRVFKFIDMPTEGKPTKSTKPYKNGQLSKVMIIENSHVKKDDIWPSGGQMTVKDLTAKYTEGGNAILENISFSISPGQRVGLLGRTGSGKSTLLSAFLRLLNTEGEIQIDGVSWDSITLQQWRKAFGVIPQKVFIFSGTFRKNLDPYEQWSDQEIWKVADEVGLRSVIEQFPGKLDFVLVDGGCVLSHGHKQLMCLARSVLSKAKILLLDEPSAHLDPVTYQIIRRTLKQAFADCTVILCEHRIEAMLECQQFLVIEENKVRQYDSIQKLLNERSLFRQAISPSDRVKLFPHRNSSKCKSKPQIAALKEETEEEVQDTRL
- assayDetails: F508del-CFTR plasma membrane relocalization enhancers – imaging, HeLa, high-content microscopy, immunofluorescence, primary screen (AID 1224864);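 also: HeLa cells stably expressing F508del-CFTR stained with 3G11 antibody against NBD1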
- setupConditions: PM immunofluorescence imaging, 24 h, at 10 µM, stronger effect = higher value, relative to vehicle wells set at 100; measured here: total cellular F508del-CFTR signal
Out of some 2,000 compounds screened, about 20 (1%) were called active. Only a selection was taken, and actives are over-represented in it overall.
Entries and their total CFTR intensity values follow.
recordedMetric: total CFTR intensity (%)

>>> assayresult("CC1(C)Cc2ccccc2-c2n[nH]c(=S)n21")
97
>>> assayresult("Cc1cc(-c2nn(-c3ccccc3F)cc2CN2CCCC(O)C2)c(C)s1 (stereo unspecified)")
76
>>> assayresult("COc1ccc(C2c3c(n[nH]c3C)CC(C)(O)C2C(C)=O)cc1OC (stereo unspecified)")
86
>>> assayresult("COc1cccc(CC2CC(=O)N(c3ccc4c(C)cc(=O)oc4c3)C2=O)c1 (stereo unspecified)")
83
>>> assayresult("Fc1ccccc1CNCCC(Cc1ccccc1)c1ccc2c(c1)OCO2 (stereo unspecified)")
228
>>> assayresult("Nc1ccc(N)c(C(=O)O)c1")
82
